experiment: soluble on expression in E. coli; label from the status in PepcDB or PDB records
Measured Attribute: soluble on expression in E. coli

>>> observed_value("MSEPLDLNQLAQKIKQWGLELGFQQVGITDTDLSESEPKLQAWLDKQYHGEMDWMARHGMLRARPHELLPGTLRVISVRMNYLPANAAFASTLKNPKLGYVSRYALGRDYHKLLRNRLKKLGEMIQQHCVSLNFRPFVDSAPILERPLAEKAGLGWTGKHSLILNREAGSFFFLGELLVDIPLPVDQPVEEGCGKCVACMTICPTGAIVEPYTVDARRCISYLTIELEGAIPEELRPLMGNRIYGCDDCQLICPWNRYSQLTTEEDFSPRKPLHAPELIELFAWSEEKFLKVTEGSAIRRIGHLRWLRNIAVALGNAPWDETILTALESRKGEHPLLDEHIAWAIAQQIERRNACIVEVQLPKKQRLVRVIEKGLPRDA")
"soluble"
>>> observed_value("AIASKREDEGCARKRRTEAGQRSEDCMNPNSVVISAFKVFQQELDTRYDKYERLVKISRDVTIESKRTIFLLHRVASVPDVEEILNEAEVKLDGVRQKIGQIAEELRGEDLHQFHRAFTPGIQEYVEAVSFHHFIRHRSLISLEEINARLVFIRDNNKAVGEGTFSSPCVLTFQITPTDYLLGVADLTGELMRMCISSVGNGDMDTPFQLSGFLRQIHDGFSLIGNTGPYEVSKKLHALRQSLGKVEDACYTLRVRGSEIPKHMLADVFSSRAAHIDPDDAMA")
"soluble"

###

assay: soluble on expression in E. coli; label from the status in PepcDB or PDB records
Measured Attribute: soluble on expression in E. coli

>>> observed_value("MDAELFPRSRAQVAPDAVHVPDWADAGRQRRFLAACRDWARPPAGLRTVHTPGGGTMTSRQVCLGWHWYPYGYARTVVDGDGAPVKPLPDWLAELGRDAVSDALGPQAVPPVPYDIALINFYGADARMGMHRDSDEKSGAPVVSLSVGDTCVFRFGNARTRTRPYTDVELRSGDLFVFGGASRLAYHGVPRVYADTAPPELGLVGRLNITLRVSGFQDPSGE")
"not soluble"
>>> observed_value("MRILFIGDVVGSPGRDMVKEYVPKLKTKYKPHFTIINGENAAHGKGLTEKIYHSLIQSGADAITMGNHTWDKKEIFDFIDDVPNLVRPANFPEGTPGKGITYVKANGKELAVINLQGRTFLPPLDDPFLKADELSPEAAKRTPYIFIDFHAEATSEKLALGWYTDGRASAVVGTHTHVQTADNRILPKGTAYITDVGMTGPYDGILGMDRETIIKRFKTNLPVRFTVAEGKTTLSGVVIDIDDQTKKAVKIERILINDDHMFFE")
"soluble"
>>> observed_value("MAHHHHHHMQRDADRMKRKKEEHRDEEEFGAFRFADGSMYEGKFCRRESNADGTAKSQFPSAHPPTTRNAQQQELPPPIPFHHGKGVFKDAGGLVYDGCWVEGDMTGEGLLRFPSGATYEGSMYANSFWGTGTYTWPDGSRYEGQWENNKMHGKGTYIDAKGKRWAGKFHHGQGVGLLAEVSL")
"soluble"
>>> observed_value("MGSDKIHHHHHHMAYGGRITLNVRIALVGEELEIRENVNIEIEEGIITHIGNGFSSEGITFKNGILIPGIVNAHVHSADFICQEMGYNMPISKVVGDPHSVKYECFAKNTKESIMNSIERFVLRARELGSNVMIDFREQGLEGSLISSTIKKKMATNGVKYYFLGRLEEDEFKDIRNLNSLYKIADGYGLSSAFSTSEIELIKHVFNNKIRSVHVSETIKHWLRDDLEYVMKRYEPNLIIHGTYLSEEEIDIMRYRKASIVYCPRSNLWFSVGIPKVINGLKSGVNLLIGTDNGGVLDPDMWKEMETLLLISRVQDPLSDHSLQILKASTINAYKFLGIRGWIEEGNPIEAGLLVLEGDSTGILNSNNKYIGIIKRGNKIIYNLGAIQKII")
"not soluble"
>>> observed_value("METEDHAFRIEDIFPFLDPYVSKWFDINYRSLTEPQKYAIPFIHEGRNVLVSSPTGTGKTLTAFLSIINELFMLARSGKLEDKIYCVYISPLKALANDVNKNLRAPLEGIYKIADEDGINLPKIRVSVRSGDTSEGERQKMARKPPHILITTPESFSLTLSSPRMRENLRDVKYVIIDEIHEISSTKRGSLLSANMERLEALRPGILRIGLSATQSP")
"not soluble"

Q: Returns the measured soluble on expression in E. coli for the input sequence. Input: MGSDKIHHHHHHMSKHQNDNPRVPHEAAPLRVLHVGPGQGQRGGIASVLAELSAQRARFRDAGVVVAIFETHGFQSMRSLLCFPLVDIPRFLFAVLKGVDLIHFHVSVRGSFYRKFLLYLLARLFGKRTIFHLHAGNFQDFWASNGPTTRKAVSRFIRGADAVVAVSSAIASELQGHQGVTRNLYVIGNTAYSAELAAGAALRDSSGGKRVDMTPYVAFAGRFTEGKGLDELLRAVAALNRRGLKVQLRLAGAGDMDRWTRAAIEYGVSDQVRFVGWLQGDAKLEFYRDAAVFCMPSHFEAFGISTLEAMFIGRPVIGTRVGGFLDLVEEGVTGYLVRCGDSHGLAERIRHLVERPELAHEMGRQAVSRALSRYSVDAIVSQYARCYRQVNGSRGA
Result: not soluble

Where these numbers come from: the DeepSol protein solubility set
